- System: lambsquarters (Chenopodium album)
- Procedure Text: Test C greenhouse herbicide test, pre- and postemergence
- Format: in vivo
- Assay Context: Postemergence, 250 g ai/ha; scale 0 to 100, 0 no effect, 100 complete control; 13 to 15 d
# Plant response rating, Lambsquarters per entry
Measurement Name: Plant response rating, Lambsquarters

>  <Molecule>
Cc1nn(C)c(=O)c(-c2cccc3ccc(C#N)cc23)c1O [Compound 127]

>  <System Tested>
lambsquarters (Chenopodium album)

>  <Observed>
98

$$$$
>  <Molecule>
CC(=O)Oc1c(C)nn(C)c(=O)c1-c1c(C)sc2c(C)cc(C)cc12 [Compound 27]

>  <System Tested>
lambsquarters (Chenopodium album)

>  <Observed>
98

$$$$
>  <Molecule>
Cc1ccc2ccccc2c1-c1c(O)cnn(C)c1=O [Compound 56]

>  <System Tested>
lambsquarters (Chenopodium album)

>  <Observed>
85

$$$$

###

- System: speedwell (bird's-eye speedwell, Veronica persica)
- Procedure Text: Test D controlled growth environment herbicide test, pre- and postemergence
- Format: in vivo
- Assay Context: Preemergence, 31 g ai/ha
- Source text: […]
Measurement Name: Plant response rating (scale of 0 to 100), Speedwell

>  <Chemical Smiles>
COc1nn(C)c(=O)c(-c2c(C)ccc3ccccc23)c1O

>  <System Tested>
speedwell (bird's-eye speedwell, Veronica persica)

>  <Observed>
100

$$$$
>  <Chemical Smiles>
CCOC(=O)Oc1c(C)nn(C)c(=O)c1-c1c(C)sc2c(C)cc(C)cc12

>  <System Tested>
speedwell (bird's-eye speedwell, Veronica persica)

>  <Observed>
70

$$$$
>  <Chemical Smiles>
COC(=O)Oc1c(C)nn(C)c(=O)c1-c1c(C)sc2c(C)cc(C)cc12

>  <System Tested>
speedwell (bird's-eye speedwell, Veronica persica)

>  <Observed>
55

$$$$
>  <Chemical Smiles>
CC(=O)Oc1c(Br)nn(C)c(=O)c1-c1c(C)ccc2ccccc12

>  <System Tested>
speedwell (bird's-eye speedwell, Veronica persica)

>  <Observed>
90

$$$$

###

- Test system: ragweed (common ragweed, Ambrosia elatior)
- Procedure Text: Test A greenhouse herbicide test, pre- and postemergence
- Format: in vivo
- Assay Context: Postemergence, 125 g ai/ha; 0 to 100 scale where 0 is no effect and 100 is complete control

>  <Chemical Smiles>
CCC(=O)Oc1c(C)nn(C)c(=O)c1-c1c(C)sc2ccc(Cl)cc12

>  <Plant response rating, Ragweed>
80

$$$$
>  <Chemical Smiles>
Cc1nn(C)c(=O)c(-c2cc(F)cc3ccccc23)c1OS(C)(=O)=O

>  <Plant response rating, Ragweed>
80

$$$$
>  <Chemical Smiles>
COc1nn(C)c(=O)c(-c2c(C)sc3ccccc23)c1OC(C)=O

>  <Plant response rating, Ragweed>
60

$$$$
>  <Chemical Smiles>
CCC(=O)Oc1c(C)nn(C)c(=O)c1-c1ccc(Br)c2ccccc12

>  <Plant response rating, Ragweed>
100

$$$$
>  <Chemical Smiles>
CC(=O)Oc1c(C)nn(C)c(=O)c1-c1c(C)sc2cc(C)cc(C)c12

>  <Plant response rating, Ragweed>
0

$$$$
>  <Chemical Smiles>
Cc1ccc2ccccc2c1-c1c(O)c(Cl)nn(C)c1=O

>  <Plant response rating, Ragweed>
90

$$$$
>  <Chemical Smiles>
COc1nn(C)c(=O)c(-c2c(C)sc3ccc(Cl)cc23)c1O

>  <Plant response rating, Ragweed>
90

$$$$
>  <Chemical Smiles>
CCOC(=O)Oc1c(C)nn(C)c(=O)c1-c1c(C(F)(F)F)ccc2ccccc12

>  <Plant response rating, Ragweed>
90

$$$$
>  <Chemical Smiles>
COc1nn(C)c(=O)c(-c2c(C)ccc3ccccc23)c1O

>  <Plant response rating, Ragweed>
100

$$$$
>  <Chemical Smiles>
Cc1ccc2ccccc2c1-c1c(OC(=O)C2CC2)c(C)nn(C)c1=O

>  <Plant response rating, Ragweed>
0

$$$$
>  <Chemical Smiles>
Cc1cc(C)c2sc(C)c(-c3c(OC(=O)OC(C)C)c(C)nn(C)c3=O)c2c1

>  <Plant response rating, Ragweed>
50

$$$$

###

- Tested on: pigweed (Amaranthus retroflexus)
- Procedure Text: Test A greenhouse herbicide test, pre- and postemergence
- Type: in vivo
- Assay Context: Preemergence, 500 g ai/ha; 0 to 100 scale, 0 no effect, 100 complete control
# Plant response rating, Pigweed per entry

>  <Chemical Smiles>
CCc1ccc2ccccc2c1-c1c(OC(=O)OC(C)C)c(C)nn(C)c1=O

>  <Plant response rating, Pigweed>
80

$$$$
>  <Chemical Smiles>
CCC(=O)Oc1c(C)nn(C)c(=O)c1-c1c(C)sc2c(C)cc(C)cc12

>  <Plant response rating, Pigweed>
100

$$$$
>  <Chemical Smiles>
COc1ccc2ccccc2c1-c1c(O)c(C)nn(C)c1=O

>  <Plant response rating, Pigweed>
100

$$$$

###

- Test system: pigweed (Amaranthus retroflexus)
- Procedure Text: Test A greenhouse herbicide test, pre- and postemergence
- Type: in vivo
- Assay Context: Postemergence, 125 g ai/ha; 0 to 100 scale, 0 no effect, 100 complete control
# Plant response rating, Pigweed per entry

>  <Compound>
Cc1nn(C)c(=O)c(-c2c(C)sc3ccccc23)c1OC(=O)N1CCOCC1 [Compound 170]

>  <System Tested>
pigweed (Amaranthus retroflexus)

>  <Plant response rating, Pigweed>
70

$$$$
>  <Compound>
Cc1ccc2sc(C)c(-c3c(OCC#N)c(C)nn(C)c3=O)c2c1 [Compound 160]

>  <System Tested>
pigweed (Amaranthus retroflexus)

>  <Plant response rating, Pigweed>
80

$$$$
>  <Compound>
CC(=O)Oc1c(C)nn(C)c(=O)c1-c1c([N+](=O)[O-])ccc2ccccc12 [Compound 164]

>  <System Tested>
pigweed (Amaranthus retroflexus)

>  <Plant response rating, Pigweed>
80

$$$$

###

# Plant response rating, Foxtail, Giant per entry
- System: foxtail, giant (giant foxtail, Setaria faberii)
- Procedure Text: Test A greenhouse herbicide test, pre- and postemergence
- Type: in vivo
- Assay Context: Preemergence, 500 g ai/ha; 0 to 100 scale where 0 is no effect and 100 is complete control

>  <Chemical Smiles>
Cc1sc2ccc(Cl)cc2c1-c1c(OS(C)(=O)=O)c(Cl)nn(C)c1=O

>  <Plant response rating, Foxtail, Giant>
90

$$$$
>  <Chemical Smiles>
COC(=O)Cn1nc(C)c(O)c(-c2cccc3ccccc23)c1=O

>  <Plant response rating, Foxtail, Giant>
90

$$$$
>  <Chemical Smiles>
Cc1ccc2ccccc2c1-c1c(OS(C)(=O)=O)c(Br)nn(C)c1=O

>  <Plant response rating, Foxtail, Giant>
90

$$$$
>  <Chemical Smiles>
CC(=O)Oc1c(C)nn(C)c(=O)c1-c1c([N+](=O)[O-])ccc2ccccc12

>  <Plant response rating, Foxtail, Giant>
40

$$$$

###

# Plant response rating, Oat, Wild per entry
- System: oat, wild (wild oat, Avena fatua)
- Procedure Text: Test C greenhouse herbicide test, postemergence
- Format: in vivo
- Assay Context: Postemergence, 125 g ai/ha; scale 0 to 100, 0 is no effect, 100 is complete control
Measurement Name: Plant response rating, Oat, Wild

>  <Chemical Smiles>
CCCC(=O)Oc1c(C)nn(C)c(=O)c1-c1c(C)sc2c(C)cc(C)cc12

>  <Observed>
90

$$$$
>  <Chemical Smiles>
CC(=O)Oc1c(C)nn(C)c(=O)c1-c1c(C)sc2ccc(C)cc12

>  <Observed>
90

$$$$
>  <Chemical Smiles>
Cc1nn(C)c(=O)c(-c2c(C)sc3ccc(Cl)cc23)c1O

>  <Observed>
90

$$$$

###

# Ragweed plant response rating per entry
- System: ragweed (common ragweed, Ambrosia elatior)
- Procedure Text: Test A greenhouse herbicide test, pre- and postemergence
- Type: in vivo
- Assay Context: Preemergence, 125 g ai/ha; 0 to 100 scale where 0 is no effect and 100 is complete control

>  <Molecule>
COC(=O)Oc1c(Cl)nn(C)c(=O)c1-c1c(C)sc2ccc(Cl)cc12 [Compound 101]

>  <Ragweed plant response rating>
40

$$$$
>  <Molecule>
C#CCOC(=O)Oc1c(C)nn(C)c(=O)c1-c1c(C)sc2ccc(C)cc12 [Compound 87]

>  <Ragweed plant response rating>
70

$$$$
>  <Molecule>
Cc1nn(C)c(=O)c(-c2c(C)sc3ccccc23)c1O [Compound 65]

>  <Ragweed plant response rating>
70

$$$$
>  <Molecule>
CC(=O)Oc1ccc2cccc(-c3c(OC(C)=O)c(C)nn(C)c3=O)c2c1 [Compound 124]

>  <Ragweed plant response rating>
0

$$$$
>  <Molecule>
CCOC(=O)Oc1c(C)nn(C)c(=O)c1-c1c(C)ccc2ccccc12 [Compound 73]

>  <Ragweed plant response rating>
90

$$$$
>  <Molecule>
Cc1ccc2ccccc2c1-c1c(O)c(C)nn(C)c1=O [Compound 59]

>  <Ragweed plant response rating>
90

$$$$
>  <Molecule>
CC(=O)Oc1c(C)nn(C)c(=O)c1-c1c(C)sc2cc(C)cc(C)c12 [Compound 44]

>  <Ragweed plant response rating>
0

$$$$
